These entries and their values trace back to the supplement of paper PMC9170038.

Record form. Attribute: apparent KD of MS2 coat protein. Fill in for each entry.
# Tested on: MS2 coat protein
# measurementNotes: apparent KD of MS2 coat protein; designed switch direction (-1 OFF switch, 1 ON switch): 1; higher = weaker reporter binding
# conditionDescription: Eterna round: R95; input ligand: FMN 200 uM
Kindly provide the numeric value in nM only, without the unit symbol.

# sequence AGUCCAGCCUGAGCUGGACAAAAGCAUGUACAUGAGGAUCACCCAUGUUCAUGUACAAGCUUUUUGCUCGUCUUAGC [salish99_208a_r3_063] (puzzle: Sensor for hsa-mir-208a) ; its apparent KD of MS2 coat protein = 837

# sequence AGUCCAGCCUGAGCUGGACAAAAGCAUGUACAUGAGGAUCACCCAUGUUCAUGUACAAGCUUUUUGCUCGUCUUAUU [salish99_208a_r3_047] (puzzle: Sensor for hsa-mir-208a) ; its apparent KD of MS2 coat protein = 457

# sequence GGUCCAGCCUGAGCUGGACAAAAGCAUGUACAUGAGGAUCACCCAUGUCAUGUACAAGCUUUUUGUUCGUCUUAAAA [JL mod - D87 - 13] (puzzle: Sensor for hsa-mir-208a) ; its apparent KD of MS2 coat protein = 420

# sequence AGUCCAGCCUGAGCUGGACAAAAGCAUGUACAUGAGGAUCACCCAUGUCAUGUACAAGCUUUUUGCUCGUCUAAAUA [Mat - hsa-mir-208a - Mod of JL - D27] (puzzle: Sensor for hsa-mir-208a) ; its apparent KD of MS2 coat protein = 516

# sequence GUUAAACAUGAGGAUCACCCAUGUAAUAUAAUGGGAGGAUAUCUGAAUUAAUUAAAUUAAGGAGAAGGCCUAUAUG [Mat - Same State 1 - Mod of Eli - D53] (puzzle: Same State 1) ; its apparent KD of MS2 coat protein = 36.6

# sequence CUCAAACAUGAGGAUCACCCAUGUGUUGUCGUGGGAGGAUAUCCCAGUUCGGUGGCGUCGGGAGAAGGCCUAUGUC [× ×•×ª×• ×ž×“×™× ×” × ×—×ª-16] (puzzle: Same State 1) ; its apparent KD of MS2 coat protein = 50.4

# sequence GGUCCAGCCUGAGCUGGACUAUAGUAUGUACAUGAGGAUCACCCAUGUCAUGUACAAGUAUGUUGUUUGUCUUGAAA [Sensorship 5 - Jieux - Sensor for hsa-mir-208a] (puzzle: Sensor for hsa-mir-208a) ; its apparent KD of MS2 coat protein = 72.3

# sequence GCGCGAAAGAGCGAGGAUAUGCGGCGUAUAACAUGAGGAUCACCCAUGUCCUUCGAAUCUUGUACGCAGAAGGCGCUACAGGCGC [Robot Leg] (puzzle: Same State 2) ; its apparent KD of MS2 coat protein = 154

# sequence GGAGAGAGAGCGCAGGAUAUUCAAGGAGAAACAUGAGGAUCACCCAUGUGAGAGAGAGAGGAGAGGGAGAAGGGUGAGAGAGAGG [Altered State 2-13 - Jieux - Same State 2] (puzzle: Same State 2) ; its apparent KD of MS2 coat protein = 23.1

# sequence GGCGCGGUCUCGCAGGAUAUCCACAAUCCUACAUGAGGAUCACCCAUGUCGCUGCAGGAUAUUAGGGAGAAGGGUGAUGCCGCGG [Bereri] (puzzle: Same State 2) ; its apparent KD of MS2 coat protein = 20

* * *

# Tested on: MS2 coat protein
# measurementNotes: apparent KD of MS2 coat protein; designed switch direction (-1 OFF switch, 1 ON switch): -1; higher = weaker reporter binding
# conditionDescription: Eterna round: R95; input ligand: microRNA oligo, concentration not stated
Record form. Attribute: apparent KD of MS2 coat protein. Fill in for each entry.

# sequence GUGUGCAGAGGAUAUACAUAGGAAUAUAAUAUAAUAUAAUUACAUGAGGAUCACCCAUGUAGAAGGCUGAGUGU [Excluse me!! 18 - Jieux - Exclusion 2] (puzzle: Exclusion 2) ; its apparent KD of MS2 coat protein = 24.3 nM

# sequence GUGGCAUGAGGAUAUCGAGGUUAGUACAUGAGGAUCACCCAUGUUAUCCAGGUGUCGGUUCGAGAAGGCAUGGCAC [LRO-Ex5-13] (puzzle: Exclusion 5) ; its apparent KD of MS2 coat protein = 250 nM

# sequence AGUCCAGAUGUUAGGAUAUGCAACUAGCCAUUGUAGCAGAAGGAACAUGAGGAUCACCCAUGUACAAAGACCCG [Edgeraer] (puzzle: Brourd's mod of Exclusion 4) ; its apparent KD of MS2 coat protein = 13.4 nM

# sequence CAAAUCUGAGGAUAUCGAUAUUUGUACAUGAGGAUCACCCAUGUCCUAUUUAUUAUAUUUCGAGAAGGCAGUGUAU [JR_E5_Sub094] (puzzle: Exclusion 5) ; its apparent KD of MS2 coat protein = 19.2 nM

# sequence CCGGCUUAGCAGGAUAUAGGAGUCGAUAGACACCUAGAAGGGCUAACAUGAGGAUCACCCAUGUGUCCUACCGG [Fiskers Ex 6 - 100] (puzzle: Exclusion 6) ; its apparent KD of MS2 coat protein = 25.9 nM

# sequence CUUUUGUGAGGAUAUUAGUAGUAAAUAAAUAAAAUUACUACUGAGAAGGUACAUGAGGAUCACCCAUGUUCCUC [salish99_ex4_r3_044] (puzzle: Exclusion 4) ; its apparent KD of MS2 coat protein = 15.8 nM

# sequence AAUAACAGAGGAUAUACUAUUUUAUGUGUUUAUUGUUUUAAACAUGAGGAUCACCCAUGUAGAAGGCUGAUUGA [JMF 73] (puzzle: Exclusion 2) ; its apparent KD of MS2 coat protein = 65.5 nM

# sequence GGUACUAUCACCUGAGUGGUAGUGCAACAAGCUUGUGAUACAUGAGGAUCACCCAUGUCCUCAUUUGCUCGUCUUAU [JL-sv3-2.25 JL mod] (puzzle: Sensor v3, turn-off variant 2) ; its apparent KD of MS2 coat protein = 1070 nM

# sequence AGCAUGGUAGGAUAUACGGAGCAUUAGGGUUUGUUGUGUGGACAUGAGGAUCACCCAUGUAGAAGGGCCGUGCA [Mat - Exclusion 2 - Mod of JL - D83] (puzzle: Exclusion 2) ; its apparent KD of MS2 coat protein = 33.5 nM

# sequence AGAAAGCAAGGAUAUACAAGGAAACGACGGAAAGUAGAGAGACAUGAGGAUCACCCAUGUAGAAGGUGCGAGAA [JR_Exclu2_Sub032] (puzzle: Exclusion 2) ; its apparent KD of MS2 coat protein = 28.7 nM

# sequence UUUAAUUUUUUUUUUUUACAAGCUUUUUGCUCGUCUUAUACAUGAGGAUCACCCAUGUGGGUGGAAAGUAAAUUAUC [JMF 47] (puzzle: Sensor v3, turn-off variant 2) ; its apparent KD of MS2 coat protein = 96.3 nM

# sequence UACCGGCGGACCGAAGCUUUUUGCUUGUUUUAUACUACAACAUGAGGAUCACCCAUGUGGUGGUGGUCCGUUGUAGU [JL ViennaUCT Bitein mod 1] (puzzle: Sensor v3, turn-off variant 2) ; its apparent KD of MS2 coat protein = 16.7 nM

# sequence GAAAAGGUAGGAUAUACGGAAAAAAAGGGUAGAAAAAAAACACAUGAGGAUCACCCAUGUAGAAGGACCAAAAG [salish99_ex2_r3_030] (puzzle: Exclusion 2) ; its apparent KD of MS2 coat protein = 32.5 nM

# sequence UAUAAUCGAGGAUAUACAUGAGGAUCACCCAUGUGUUGCCGCGUGAUGUGUUUGUCAGGUAGAAGGCGAUUAUA [Exclusion 3 - Mod of Jieux's Gilly Gone Silly 23 v.9] (puzzle: Exclusion 3) ; its apparent KD of MS2 coat protein = 153 nM

# sequence GGAAAGUGAGGAUAUGGUAAUUUAAUUAUUAAUUAAUUAAUCCAGAAGGCACAUGAGGAUCACCCAUGUAAAUG [Mat - Exclusion 4 - D91] (puzzle: Exclusion 4) ; its apparent KD of MS2 coat protein = 30 nM

# sequence CUGAGGUAGCGGUCCUAUGACAUGAGGAUCACCCAUGUACCUUGCUACGAGCUUUUUGCUCGUCUUAUAAUUCUCAG [Mat - Sensor v3 - turn-off var 1 - JL Mod - D31] (puzzle: Sensor v3, turn-off variant 1) ; its apparent KD of MS2 coat protein = 96.5 nM

# sequence GGAAAGCAAGGAUAUACAAGGAGAAGGAGGAAAGUAAAAGGACAUGAGGAUCACCCAUGUAGAAGGUGCGAGAG [JR_Exclu2_Sub039] (puzzle: Exclusion 2) ; its apparent KD of MS2 coat protein = 29 nM

# sequence UAAUACAAGCAAAGAUCUUACAUGAGGAUCACCCAUGUGCUCGUCUUAUAAAGUACUAUCACGAAAGUGAUAGUACA [Mat - Sensor v3 - turn-off var 1 - Eli Mod - D93] (puzzle: Sensor v3, turn-off variant 1) ; its apparent KD of MS2 coat protein = 181 nM

# sequence AAGUAUAGAGGAUAUAGUAGGUACAACAUGAGGAUCACCCAUGUUCUUCAUAACGUAUUUCUAGAAGGCUGAUAAA [EX-5 Malc#27] (puzzle: Exclusion 5) ; its apparent KD of MS2 coat protein = 174 nM

# sequence UUACAAUGUCGCUUAUAAGCUUUUUGCUCGUCUUAUAUUACAUGAGGAUCACCCAUGUAGAUCAUGUGGCGUGACCU [JL ViennaUCT Maridi mod 8] (puzzle: Sensor v3, turn-off variant 2) ; its apparent KD of MS2 coat protein = 47.9 nM
